test system: SW480; test: cell viability (CellTiter-Glo) relative to plate median (fraction of plate median); higher = more viable cells; conditions: 10 µM; treatment time 24 h; reporter: 7TFP
Exercise: state measured cell viability for each of the compounds provided.
Answers are plain numbers.

Please go through the list and note cell viability for each compound.
1. COc1cc(CCc2cc(NC(=O)c3ccc(N4CC(C)NC(C)C4)cc3)n[nH]2)cc(OC)c1 (configuration not stated)
2. Nc1nccc(Oc2ccc(NC(=O)c3c[nH]cc(-c4ccc(F)cc4)c3=O)cc2F)c1Cl
3. CC(C)NC[C@@H](C(=O)N1CCN(c2ncnc3c2[C@H](C)C[C@H]3O)CC1)c1ccc(Cl)cc1
4. N#CCNC(=O)c1ccc(-c2ccnc(Nc3ccc(N4CCOCC4)cc3)n2)cc1
5. C[C@@H]1CN(CC(=O)Nc2ccc3c(c2)Cc2cccc(-c4cc(=O)cc(N5CCOCC5)o4)c2S3)C[C@H](C)O1

Result:
1.07
0.886
1.04
1.09
0.952

====

tested on: SW480; test: cell viability (CellTiter-Glo) relative to plate median (fraction of plate median); higher = more viable cells; details: 5 µM; treatment time 24 h; reporter: 7TFP
Exercise: state measured cell viability for each of the molecules provided.

Below are worked cases with known answers.
>  <MOLECULE>
CC(=O)O[C@]1(C(C)=O)CC[C@H]2[C@@H]3C[C@H](C)C4=CC(=O)CC[C@]4(C)[C@H]3CC[C@@]21C

>  <cell viability>
0.96

$$$$
>  <MOLECULE>
Cc1cccc(C)c1OCC(C)N (centres undefined)

>  <cell viability>
1.06

$$$$
>  <MOLECULE>
Nc1ccn([C@@H]2O[C@H](CO)[C@@H](O)[C@H]2O)c(=O)n1

>  <cell viability>
1.06

$$$$
>  <MOLECULE>
NC(=O)c1ccc[n+]([C@@H]2O[C@H](COP(=O)([O-])OP(=O)(O)OC[C@H]3O[C@@H](n4cnc5c(N)ncnc54)[C@H](O)[C@@H]3O)[C@@H](O)[C@H]2O)c1

>  <cell viability>
0.942

$$$$
>  <MOLECULE>
NS(=O)(=O)c1cc2c(cc1Cl)NC(C(Cl)Cl)NS2(=O)=O (centres undefined)

>  <cell viability>
0.973

$$$$
>  <MOLECULE>
O=c1c(O)c(-c2ccc(O)c(O)c2)oc2cc(O)ccc12

>  <cell viability>
0.969

$$$$
>  <MOLECULE>
Cn1c(=O)[nH]c2[nH]cnc2c1=O

>  <cell viability>
1.04

$$$$
>  <MOLECULE>
COc1cc2occ(-c3ccccc3)c(=O)c2c(OC)c1C

>  <cell viability>
0.958

$$$$

Q: What does the data say about its cell viability? Entry: `CC(=O)OCC(=O)[C@@]1(O)CC[C@H]2[C@@H]3CCC4=CC(=O)CC[C@]4(C)[C@@]3(F)[C@@H](O)C[C@@]21C`
Result: 0.995

====

Exercise: state measured cell viability for each of the compounds provided.
test system: DLD1; experiment: cell viability (CellTiter-Glo) relative to plate median (fraction of plate median); higher = more viable cells; details: 5 µM; treatment time 24 h; reporter: 7TFP
Answers are plain numbers.

Below are worked cases with known answers.
>  <COMPOUND>
COc1c2c(c(O)c3c4c(c(C)cc13)C1OC3(C(OC)OC)OC1C(O[C@H]1C[C@@H](O)[C@@](O)(C(C)=O)[C@H](C)O1)(O4)C3(O)CO)C(=O)C(O)CC2O[C@H]1C[C@@](C)(O)[C@H](OC(C)=O)[C@H](C)O1 (stereo partly specified) [Trioxacarcin B]

>  <TESTED_TARGET>
DLD1

>  <RECORDED_ENDPOINT>
cell viability

>  <RECORDED_RESULT>
1.09

$$$$
>  <COMPOUND>
COC(=O)CC1C(C)(C)C(OC(C)=O)[C@@H]2[C@@H](OC(C)=O)[C@]34O[C@@]2(O)[C@]1(C)C3CC[C@]1(C)C4=CC(=O)O[C@H]1c1ccoc1 (stereo partly specified)

>  <TESTED_TARGET>
DLD1

>  <RECORDED_ENDPOINT>
cell viability

>  <RECORDED_RESULT>
1.02

$$$$
>  <COMPOUND>
CCN(CC)CCCC(C)Nc1ccnc2cc(Cl)ccc12 (stereo unspecified)

>  <TESTED_TARGET>
DLD1

>  <RECORDED_ENDPOINT>
cell viability

>  <RECORDED_RESULT>
1.05

$$$$
>  <COMPOUND>
CCC[C@H](N[C@@H](C)C(=O)N1[C@H](C(=O)O)C[C@@H]2CCCC[C@@H]21)C(=O)OCC

>  <TESTED_TARGET>
DLD1

>  <RECORDED_ENDPOINT>
cell viability

>  <RECORDED_RESULT>
1.03

$$$$
>  <COMPOUND>
COc1c(N2CCNC(C)C2)c(F)cc2c(=O)c(C(=O)O)cn(C3CC3)c12 (stereo unspecified)

>  <TESTED_TARGET>
DLD1

>  <RECORDED_ENDPOINT>
cell viability

>  <RECORDED_RESULT>
0.925

$$$$
>  <COMPOUND>
S=c1[nH]cnc2nc[nH]c12

>  <TESTED_TARGET>
DLD1

>  <RECORDED_ENDPOINT>
cell viability

>  <RECORDED_RESULT>
0.733

$$$$
>  <COMPOUND>
COc1ccnc(C[S+]([O-])c2nc3cc(OC(F)F)ccc3[nH]2)c1OC (stereo unspecified)

>  <TESTED_TARGET>
DLD1

>  <RECORDED_ENDPOINT>
cell viability

>  <RECORDED_RESULT>
0.961

$$$$
>  <COMPOUND>
COC(=O)C[C@H]1C2(C)CC34OC5(C)O[C@@]6([C@H](OC(C)=O)C(OC(C)=O)[C@]7(C)C(/C(=C(/O)C(C)C)C(=O)O[C@H]7c7ccoc7)[C@@]6(O5)[C@H](OC(C)=O)[C@@]3(O)C2OC(=O)C(C)C)[C@]14C (stereo partly specified)

>  <TESTED_TARGET>
DLD1

>  <RECORDED_ENDPOINT>
cell viability

>  <RECORDED_RESULT>
1.02

$$$$
>  <COMPOUND>
C#C[C@]1(OC(C)=O)CC[C@H]2[C@@H]3CCC4=CC(=NO)CC[C@@H]4[C@H]3CC[C@@]21CC (mixture of isomers)

>  <TESTED_TARGET>
DLD1

>  <RECORDED_ENDPOINT>
cell viability

>  <RECORDED_RESULT>
1

$$$$
>  <COMPOUND>
CC(=O)O[C@H]1CC[C@@]2(C)[C@H](CC[C@@H]3[C@@H]2CC[C@]2(C)[C@@H]4[C@H](C[C@@H]32)O[C@]2(CC[C@@H](C)CO2)[C@H]4C)C1

>  <TESTED_TARGET>
DLD1

>  <RECORDED_ENDPOINT>
cell viability

>  <RECORDED_RESULT>
1.01

$$$$

Please go through the list and note cell viability for each compound.
1. CC(=O)OCC[N+](C)(C)C
2. CC(=O)Nc1c(I)cc(I)c(C(=O)O)c1I
3. COC(=O)N/N=C/c1c[n+]([O-])c2ccccc2[n+]1[O-]
4. Cc1ccnc(NS(=O)(=O)c2ccc(N)cc2)n1

Result:
1: 0.987; 2: 1; 3: 0.917; 4: 0.968

Please go through the list and note cell viability for each compound.
1. COc1cccc2c1C(=O)c1c(O)c3c(c(O)c1C2=O)C[C@@](O)(C(C)=O)C[C@@H]3O[C@H]1C[C@H](NC=O)[C@H](O)[C@H](C)O1 [Baumycin C1]
2. COc1cc(NS(=O)(=O)c2ccc(N)cc2)nc(OC)n1
3. CN(C)CCN(Cc1ccccc1)c1ccccn1
4. O=C(CCCCCCCCCCCCC1CCCC1)Nc1ccc(S(=O)(=O)c2ccc(NC(=O)CCCCCCCCCCCCC3CCCC3)cc2)cc1
5. CC1(C)O[C@@H]2C[C@H]3[C@@H]4C[C@H](F)C5=CC(=O)C=C[C@]5(C)[C@H]4[C@@H](O)C[C@]3(C)[C@]2(C(=O)CO)O1
6. CCCCC[C@H](CC(=O)NO)C(=O)N[C@H](C(=O)N1CCC[C@H]1CO)C(C)C

Result:
1: 0.954; 2: 0.977; 3: 0.944; 4: 1.02; 5: 0.996; 6: 0.951

Please go through the list and note cell viability for each compound.
1. S=P(N1CC1)(N1CC1)N1CC1
2. Nc1ccc(S(=O)(=O)O)cc1.Nc1ccc(S(=O)(=O)O)cc1.[Zn]
3. CSc1ccc2c(c1)N(CCC1CCCCN1C)c1ccccc1S2 (stereo unspecified)
4. COc1ccc(-c2cc(=O)c3c(O)c(OC)c(OC)c(OC)c3o2)cc1

Result:
1. 0.975
2. 1.08
3. 1.01
4. 1.01

Please go through the list and note cell viability for each compound.
1. Cc1c(OCC(F)(F)F)ccnc1C[S+]([O-])c1nc2ccccc2[nH]1 (stereo unspecified)
2. CN1CCC(OC(c2ccccc2)c2ccccc2)CC1
3. CC1=CC(=O)c2ccccc2C1=O
4. CCOC(=O)c1ccc(N)cc1
5. COc1ccc(C(C)=O)c(O)c1
6. CO[C@H]1C[C@@H]2CC[C@@H](C)[C@@](O)(O2)C(=O)C(=O)N2CCCC[C@H]2C(=O)O[C@H]([C@H](C)C[C@@H]2CC[C@@H](O)[C@H](OC)C2)CC(=O)[C@H](C)/C=C(\C)[C@@H](O)[C@@H](OC)C(=O)[C@H](C)C[C@H](C)/C=C/C=C/C=C/1C
7. CO[C@@]1(NC(=O)CSCC#N)C(=O)N2C(C(=O)O)=C(CSc3nnnn3C)CS[C@@H]21

Result:
[1.07, 0.969, 1.04, 1, 1, 1.18, 0.998]
